Tested on: UACC-62 melanoma
Assay: NCI-60 one-dose screen, 48 h (100 = growth as untreated, 0 = no growth, -100 = all killed)
Details: 10 µM unless noted
The panel holds about 83,000 compounds, 20% with a hit somewhere; the sample as a whole holds those more often.
value-kind: growth (%)
Numbers only, in %.

In the examples that follow, each entry is paired with its recorded growth.
O=C(/C=C/c1ccc(C(F)(F)F)cc1)c1ccc(Nc2nc(NCCO)nc(Nc3ccc(Cl)cc3)n2)cc1	62.4
COc1ccc(/C=C2/SC(=O)N(CC(=O)N3CCN(c4cc5c(cc4F)c(=O)c(C(=O)O)cn5C4CC4)CC3)C2=O)cc1	97.3
O=C1/C=C/[C@@H](O)[C@@H]2C[C@@H](O)C[C@H]2/C=C/CCCCO1	64.1
Cc1ccc(F)cc1NC(=O)c1cc(Cl)ccc1Nc1ccccc1	65.4

Provide the reported growth of each entry below, same order.
1. CN1C(=O)N(C)C2Nn3c(s/c(=C\c4ccc(Cl)cc4Cl)c3=O)=NC21 (centres undefined)
2. Cc1cc(OC(=O)c2ccc([N+](=O)[O-])cc2)nc2[nH]c(=O)sc12
3. CC[C@H](C)[C@@H](C(=O)OC)n1cc(CNC(=O)[C@@H](Cc2ccccc2)NC(=O)OCc2ccccc2)nn1
4. O=C(Nc1ccc(I)cc1F)c1cc(F)ccc1O
5. Clc1ncccc1Nc1ccc2nnc(-c3ccncc3)n2n1

Ans.
1. 47.1
2. 102
3. 94.6
4. -21.9
5. 106

---

System: NCI-H460 lung
Assay: NCI-60 one-dose screen, 48 h (100 = growth as untreated, 0 = no growth, -100 = all killed)
Conditions: 10 µM unless noted
Compounds without any hit were thinned out: in the full panel of roughly 83,000, 20% have a hit.
value-kind: growth (%)
Give bare numbers, in %.

In the examples that follow, each entry is paired with its recorded growth.
Cc1cc2c(c(C)c1Cl)C(=O)/C(=C/c1ccco1)O2	94.7
O=C(c1nc2ccccc2[nH]1)C1C(c2ccc([N+](=O)[O-])cc2)C2CC3CCCCC3N2[C@@]12C(=O)Nc1cc(Cl)ccc12 (stereo not given in full)	11.2
COc1ccc(-c2cn[nH]c2-c2ccc(OC)c(O)c2)cc1	76.6
CC(C)CCNCC(O)Cn1c2ccccc2c2ccccc21 (stereo not given)	1.52

Note: attention shifts to another entry.
Value of growth reported for the molecule COc1ccc(Cn2c(Br)c3c(c2Br)-c2nc(N)sc2CC3)cc1 is 15.7

---

Tested on: CAKI-1 renal
Experiment: NCI-60 one-dose screen, 48 h (100 = growth as untreated, 0 = no growth, -100 = all killed)
Conditions: 10 µM unless noted
This is part of a sample that, as a whole, favours compounds with a hit. Of some 83,000 tested, about 20% had one in any assay.
value-kind: growth (%)
Numbers only, in %.

Provide the reported growth of each entry below, same order.
1. O=C1Nc2ccccc2/C1=C/c1ccc[nH]1
2. COc1cc(C=C2C(=O)N(C)C(=O)N(C)C2=O)cc(CN2CCCCC2)c1O

Ans.
1: 77.4; 2: 92.4

---

Test system: OVCAR-8 ovarian
Experiment: NCI-60 one-dose screen, 48 h (100 = growth as untreated, 0 = no growth, -100 = all killed)
Details: 10 µM unless noted
About 83,000 compounds went through this panel and 20% of them were active in at least one assay; those are over-represented in the sample as a whole. The source made the active and inactive calls. The calls were made as follows: active = growth percent below 10; inactive = the rest.
Answer each item with its documented growth.

O=C(Cc1ccccc1)NC(c1ccc(Cl)cc1)c1c(O)ccc2ccccc12 (stereo not given)	5.43% (active)

Provide the reported growth of each entry below, same order.
1. CCCCN1CCN(c2ccc3nc(-c4ccc5nc(-c6ccc(C(F)(F)F)cc6)[nH]c5c4)[nH]c3c2)CC1
2. CCOc1ccc(-c2nonc2NC(=O)c2cccc(C)c2)cc1OCC
3. Nc1ccc(C2c3ccccc3Oc3ccccc32)cc1
4. O=C1NC(=S)NC(=O)C1=Cc1cn(Cc2cn(Cc3cccc4ccccc34)nn2)c2ccccc12
5. Nc1no[n+]([O-])c1-c1nnc2c(n1)-c1ccccc1C2=O
6. COc1ccc(CN2CCCC(C(=O)c3ccc(C(F)(F)F)cc3)C2)c(O)c1 (stereo not given)

Ans.
-40.5% (active)
79.5% (inactive)
102% (inactive)
102% (inactive)
65.7% (inactive)
17% (inactive)

Provide the reported growth of each entry below, same order.
1. Nc1nc(N)c2c(n1)NC1(C=C(O)c3ccccc31)C1=C(N2)c2ccccc2C1=O (stereo not given)
2. COc1cc2nc(NC3CCCC3)nc(NC3CCN(C(C)C)CC3)c2cc1OC

Ans.
103% (inactive)
89.7% (inactive)

Value of growth reported for the compound CCCCOCc1cc(CN2CCN(C)CC2)c(O)c2ncccc12 is 27.1% (inactive)

Attribution: PubChem BioAssay (NCI)
